// provenance: patent US20080221161A1

Task for the reader: assign each of the following compounds its reported EC50.
# Measured on: human TGR5 (Homo sapiens, UniProt Q8TDU6)
# Sequence (Q8TDU6 whole entry): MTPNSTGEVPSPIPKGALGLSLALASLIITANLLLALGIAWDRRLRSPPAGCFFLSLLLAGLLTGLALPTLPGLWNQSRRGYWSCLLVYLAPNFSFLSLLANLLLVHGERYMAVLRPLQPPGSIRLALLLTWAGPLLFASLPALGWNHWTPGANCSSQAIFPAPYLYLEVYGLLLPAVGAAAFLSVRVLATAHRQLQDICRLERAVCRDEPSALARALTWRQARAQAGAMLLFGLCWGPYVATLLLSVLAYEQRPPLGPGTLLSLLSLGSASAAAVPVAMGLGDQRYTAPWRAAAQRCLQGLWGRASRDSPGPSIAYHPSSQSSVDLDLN
# Test protocol: cAMP production assay in HEK293-TGR5 cells
# Condition label: HEK293 cells stably expressing human TGR5; 30 minutes stimulation; LANCE cAMP TR-FRET; read-out: cAMP Production in 293-TGR5 Cells EC50

Return reported EC50; argument: FC(F)(F)Oc1ccc2cc(CNCCc3ccc(Cl)cc3)c(-c3cccnc3)nc2c1
> 10 µM

Return reported EC50; argument: COc1ccc2cc(CNCc3ccc(C(F)(F)F)cc3)c(-c3ccoc3)nc2c1
> 10 µM

Return reported EC50; argument: C[C@H](NCc1cc2ccc(O)cc2nc1-c1ccsc1)c1ccc(Br)cc1
< 10 µM

Return reported EC50; argument: CCOc1ccc2cc(CNCc3ccc(C(F)(F)F)cc3)c(-c3cccnc3)nc2c1
> 10 µM

Return reported EC50; argument: COc1ccc2cc(CNCCc3ccc(Br)cc3)c(-c3cscc3C)nc2c1
> 10 µM

Return reported EC50; argument: NC(=O)c1ccc2cc(CNCCc3ccc(Br)cc3)c(-c3ccsc3)nc2c1
< 10 µM

Return reported EC50; argument: COc1ccc2cc(CNCCc3ccc(Cl)cc3)c(-c3ncco3)nc2c1
< 10 µM

Return reported EC50; argument: Oc1ccc2cc(CNCc3ccc(C(F)(F)F)cc3)c(-c3ccsc3)nc2c1
< 10 µM

Return reported EC50; argument: COc1ccc2cc(CNCc3ccc(C(F)(F)F)cc3)c(-c3ncco3)nc2c1
> 10 µM

Return reported EC50; argument: COc1ccc2cc(CNCCOc3cccc4ncccc34)c(-c3ccsc3)nc2c1
< 10 µM

Return reported EC50; argument: CSc1ccc2cc(CNCCc3ccc(Br)cc3)c(-c3ccsc3)nc2c1
< 10 µM

Return reported EC50; argument: COc1ccc2cc(CNC(=O)c3ccc(C(F)(F)F)cc3)c(-c3ccsc3)nc2c1
> 10 µM

Return reported EC50; argument: COc1ccc2cc(CN[C@@H](C)c3ccc(Br)cc3)c(-c3ccsc3)nc2c1
< 10 µM

Return reported EC50; argument: COc1cc2cc(CNCCc3ccc(Br)cc3)c(-c3ccsc3)nc2cc1F
> 10 µM

Return reported EC50; argument: COc1ccc2cc(CNCc3ccc(C(F)(F)F)cc3)c(-c3ccsc3)nc2c1
> 10 µM

Return reported EC50; argument: COc1ccc2cc(CNCCc3ccc(Cl)cc3)c(Sc3ccncc3)nc2c1
> 10 µM

Return reported EC50; argument: Oc1ccc2nc(-c3ccsc3)c(CNCc3ccc(C(F)(F)F)cc3)cc2c1
> 10 µM

Return reported EC50; argument: FC(F)(F)Oc1ccc2cc(CNCc3ccc(C(F)(F)F)cc3)c(-c3ccsc3)nc2c1
< 10 µM

Return reported EC50; argument: COc1ccc2cc(CNCc3ccc(C(F)(F)F)cc3)c(-c3cscc3C)nc2c1
> 10 µM

Return reported EC50; argument: COc1ccc2nc(-c3ccsc3)c(CNCc3ccc(C(F)(F)F)cc3)cc2c1
> 10 µM

Return reported EC50; argument: COc1ccc2cc(CNCc3cccc(C(F)(F)F)c3)c(-c3ccsc3)nc2c1
< 10 µM

Return reported EC50; argument: Oc1ccc2cc(CNCCc3ccc(Br)cc3)c(-c3ccoc3)nc2c1
> 10 µM

Return reported EC50; argument: COc1ccc2cc(CNCCc3ccc(Cl)c(Cl)c3)c(-c3ccsc3)nc2c1
< 10 µM

Return reported EC50; argument: FC(F)(F)c1ccc(CNCc2cc3ccccc3nc2-c2ccsc2)cc1
< 10 µM

Return reported EC50; argument: COc1ccc2nc(-c3ccsc3)c(CNCCc3ccc(Cl)cc3)cc2c1
> 10 µM

Return reported EC50; argument: Sc1ccc2cc(CNCCc3ccc(Br)cc3)c(-c3ccsc3)nc2c1
< 10 µM

Return reported EC50; argument: COc1ccc2cc(CN(C)CCc3ccc(Cl)cc3)c(-c3ccsc3)nc2c1
> 10 µM

Return reported EC50; argument: COc1ccc2cc(CNCc3ccc(Br)cc3)c(-c3ccncc3)nc2c1
< 10 µM

Return reported EC50; argument: COc1ccc2cc(CNCCc3ccc(Br)cc3)c(-c3csc4ccccc34)nc2c1
< 10 µM

Return reported EC50; argument: COc1ccc2cc(CNC3CCc4ccccc43)c(-c3ccncc3)nc2c1 (racemic)
< 10 µM

Return reported EC50; argument: FC(F)(F)c1ccc(CNCc2cc3ccc(Cl)cc3nc2-c2ccsc2)cc1
> 10 µM

Return reported EC50; argument: COc1ccc2cc(CNCc3ccco3)c(-c3ccsc3)nc2c1
< 10 µM

Return reported EC50; argument: COc1ccc2cc(CNCc3ccc4c(c3)OCO4)c(-c3ccsc3)nc2c1
> 10 µM

Return reported EC50; argument: COc1ccc2cc(CNCc3cnc(C)cn3)c(-c3ccsc3)nc2c1
< 10 µM

Return reported EC50; argument: FC(F)(F)Oc1ccc2cc(CNCCc3ccc(Br)cc3)c(-c3cccnc3)nc2c1
> 10 µM

Return reported EC50; argument: Cc1c(CNCCc2ccc(Br)cc2)c(-c2ccsc2)nc2cc(O)ccc12
> 10 µM

====

# Measured on: UniProtKB Q8TDU6
# Test protocol: cAMP production assay in HEK293-TGR5 cells
# Condition label: HEK293 cells stably expressing human TGR5; 30 minutes stimulation; LANCE cAMP TR-FRET; read-out: cAMP Production in 293-TGR5 Cells EC50
pEC50: −log10 of the molar value. Where a name gives a salt, the structure may show the parent alone.
Task for the reader: assign each of the following molecules its reported pEC50.

Return reported pEC50; argument: Oc1ccc2cc(CCNCCc3ccc(Br)cc3)c(-c3ccsc3)nc2c1
< 5.00

Return reported pEC50; argument: COc1ccc2cc(CN[C@H](C)c3ccc(C)cc3)c(-c3ccncc3)nc2c1
> 5.00

Return reported pEC50; argument: CC(=O)Nc1ccc2cc(CNCCc3ccc(Br)cc3)c(-c3ccsc3)nc2c1
< 5.00

Return reported pEC50; argument: CCOc1ccc2cc(CNCCc3ccc(Cl)cc3)c(-c3ccsc3)nc2c1
> 5.00

Return reported pEC50; argument: COc1ccc2cc(CNCCc3ccc(Cl)cc3)c(-c3ccccc3F)nc2c1
> 5.00

Return reported pEC50; argument: COc1ccc2cc(CN[C@H](C)c3ccc(Br)cc3)c(-c3ccsc3)nc2c1
> 5.00

Return reported pEC50; argument: CN(C)c1ccc2cc(CNCCc3ccc(Br)cc3)c(-c3ccsc3)nc2c1
< 5.00

Return reported pEC50; argument: CN(C)c1ccc2cc(CNCc3ccc(C(F)(F)F)cc3)c(-c3ccsc3)nc2c1
< 5.00

Return reported pEC50; argument: Cc1cccc2cc(CNCc3ccc(C(F)(F)F)cc3)c(-c3ccsc3)nc12
> 5.00

Return reported pEC50; argument: COc1ccc2cc(CNCCc3ccc(Br)cc3)c(O)nc2c1 [Example 149, hydrochloride]
< 5.00

Return reported pEC50; argument: COc1ccc2cc(CNCCc3ccc(Cl)cc3)c(-c3cccnc3)nc2c1
> 5.00

Return reported pEC50; argument: COc1ccc2cc(C(=O)NCCc3ccc(Cl)cc3)c(-c3ccsc3)nc2c1
> 5.00

Return reported pEC50; argument: COc1ccc2cc(CNCc3ccc(F)cc3F)c(-c3ccncc3)nc2c1
> 5.00

Return reported pEC50; argument: COc1ccc2cc(CNCc3ccc(OC(F)(F)F)cc3)c(-c3cccnc3)nc2c1
< 5.00

Return reported pEC50; argument: Oc1cc2cc(CNCCc3ccc(Br)cc3)c(-c3ccsc3)nc2cc1F
> 5.00

Return reported pEC50; argument: Oc1ccc2cc(CNCCc3ccc(Cl)c(Cl)c3)c(-c3ccsc3)nc2c1
> 5.00

Return reported pEC50; argument: COc1ccc2cc(NCCc3ccc(Br)cc3)c(-c3ccsc3)nc2c1
> 5.00

Return reported pEC50; argument: COc1ccc2cc(CNCc3ccc(C(F)(F)F)cc3)c(-c3ccccc3)nc2c1
> 5.00

Return reported pEC50; argument: COc1ccc2cc(CNCc3ccc(C(C)(C)C)cc3)c(-c3ccncc3)nc2c1
> 5.00

Return reported pEC50; argument: COc1cc2nc(-c3ccsc3)c(CNCCc3ccc(Br)cc3)cc2cc1F
> 5.00

Return reported pEC50; argument: COc1ccc2cc(CNCc3ccc(C(F)(F)F)cc3)c(-c3nccs3)nc2c1
< 5.00

Return reported pEC50; argument: Oc1ccc2cc(CNCCc3ccc(Br)cc3)c(-c3ccccc3)nc2c1
> 5.00

Return reported pEC50; argument: COc1ccc2cc(CNCc3ccc(C(F)(F)F)cc3)c(-c3ccccc3F)nc2c1
< 5.00

Return reported pEC50; argument: COc1ccc2cc(CNCCc3cccnc3)c(-c3ccncc3)nc2c1
> 5.00

Return reported pEC50; argument: COc1cc(OC)c(CNCc2cc3ccc(OC)cc3nc2-c2ccncc2)c(OC)c1
< 5.00

Return reported pEC50; argument: COc1ccc2cc(CNCc3ccc(C(F)(F)F)cc3)c(-c3ccco3)nc2c1
< 5.00

Return reported pEC50; argument: COc1ccc2cc(CNCc3ccc(C(F)(F)F)cc3)c(-c3ccncc3)nc2c1
> 5.00

Return reported pEC50; argument: CCOc1ccc2cc(CNCCc3ccc(Br)cc3)c(-c3cccnc3)nc2c1
< 5.00

Return reported pEC50; argument: COc1ccc2cc(CNCc3ccc(Cl)c(Cl)c3)c(-c3ccsc3)nc2c1
> 5.00

Return reported pEC50; argument: Cc1cccc2cc(CNCCc3ccc(Cl)cc3)c(-c3ccsc3)nc12
< 5.00

Return reported pEC50; argument: COc1ccc2cc(CNCCc3c[nH]c4ccc(O)cc34)c(-c3ccncc3)nc2c1
< 5.00

Return reported pEC50; argument: Clc1ccc(CCNCc2cc3ccccc3nc2-c2ccsc2)cc1
< 5.00

Return reported pEC50; argument: C[C@@H](NCc1cc2ccc(O)cc2nc1-c1ccsc1)c1ccc(Br)cc1
> 5.00

Return reported pEC50; argument: COc1ccc2cc(CNCCc3ccc(Br)cc3)c(OC)nc2c1
< 5.00

Return reported pEC50; argument: OCc1ccc2cc(CNCCc3ccc(Br)cc3)c(-c3ccsc3)nc2c1
> 5.00

Return reported pEC50; argument: COc1ccc2cc(CNc3ccccc3)c(-c3ccsc3)nc2c1
> 5.00
